Test system: PIP tumor and PC3 tumor
Method Summary: Biodistribution of 125I labeled compounds 17, 18, 26 and 27 in tumor bearing nude mice
Assay type: in vivo
Study Conditions: 1 h, organ with content
Measured Quantity: Biodistribution: small intestine* (% ID/g)
Number in % ID/g, nothing else.

Here is how some compounds turned out for Biodistribution: small intestine*.
compound="O=C(O)CC[C@H](NC(=O)N[C@@H](CCCCNC(=O)[C@H](Cc1ccccc1)NC(=O)[C@H](CCC(=O)O)NC(=O)c1ccc([125I])cc1)C(=O)O)C(=O)O [[^125I]17]" measured_quantity="Biodistribution: small intestine*" unit_string="% ID/g" quantitative_result=3.22
compound="O=C(O)CC[C@H](NC(=O)N[C@@H](CCCCNC(=O)[C@H](Cc1ccccc1)NC(=O)COc1ccc(C[C@H](NC(=O)[C@H](CCC(=O)O)NC(=O)[C@H](CCC(=O)O)NC(=O)c2ccc([125I])cc2)C(=O)O)cc1)C(=O)O)C(=O)O [[^125I]27]" measured_quantity="Biodistribution: small intestine*" unit_string="% ID/g" quantitative_result=1.52
compound="O=C(O)CC[C@H](NC(=O)N[C@@H](CCCCNC(=O)[C@H](Cc1ccccc1)NC(=O)[C@H](CCC(=O)O)NC(=O)[C@H](CCC(=O)O)NC(=O)c1ccc([125I])cc1)C(=O)O)C(=O)O [[^125I]18]" measured_quantity="Biodistribution: small intestine*" unit_string="% ID/g" quantitative_result=1.98

Turning now to a further compound:
Please report the recorded Biodistribution: small intestine* for O=C(O)CC[C@H](NC(=O)N[C@@H](CCCCNC(=O)[C@H](Cc1ccccc1)NC(=O)COc1ccc(C[C@H](NC(=O)[C@H](CCC(=O)O)NC(=O)c2ccc([125I])cc2)C(=O)O)cc1)C(=O)O)C(=O)O [[^125I]26] .
1.08
